Origin of measurements: patent US20130330346A1

measured.on: T1, Human CXCR2 (human, UniProt P25025 1-360)
T1 sequence: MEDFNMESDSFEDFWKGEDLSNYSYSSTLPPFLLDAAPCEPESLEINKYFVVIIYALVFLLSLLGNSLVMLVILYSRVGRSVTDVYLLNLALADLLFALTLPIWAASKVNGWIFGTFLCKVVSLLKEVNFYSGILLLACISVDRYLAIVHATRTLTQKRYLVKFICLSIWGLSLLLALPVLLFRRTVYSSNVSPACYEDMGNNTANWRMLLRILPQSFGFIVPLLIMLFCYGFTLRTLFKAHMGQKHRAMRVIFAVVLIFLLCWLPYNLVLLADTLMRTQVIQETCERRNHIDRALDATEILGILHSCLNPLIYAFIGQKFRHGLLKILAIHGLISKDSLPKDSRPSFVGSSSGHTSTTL
protocol.details: cell-based or functional assay
// [35S]GTPγS IC50 (ENA-78) lookup, one value per entry
Lab book: enter the figure in nM, no units written.

CXCR20032 (bispecific antibody, Biparatopic: two VHH joined by a GlySer linker; also called 2B2-35GS-163D2; not shown: C-terminal c-myc tag and His6 tag coded by pAX100) EVQLVESGGELVQPGGSLRLSCAASGSILTINAMGWYRQAPGKQRELVVRRTRGGSTTYQDSVKGRFTISADIAKKTMYLQMNSLKPEDTAVYYCMLDDRGGVYWGQGTQVTVSSGGGGSGGGGSGGGGSGGGGSGGGGSGGGGSGGGGSEVQLVESGGGLVQAGGSLRLSCAASGRTFSDYAMGWFRQAPGKEREFVAAITWNGGRVFYTASVKGRFTISRDNAKNTMYLQMNSLKPEDTAVYYCAADKDRRTDYLGHPVAYWGQGTQVTVSS
0.116

Q: Retrieve [35S]GTPγS IC50 (ENA-78) measured for CXCR20014 (bispecific antibody, Biparatopic: two VHH joined by a GlySer linker; also called 97A9-35GS-2B2; 97A9-2B2; not shown: C-terminal c-myc tag and His6 tag coded by pAX100) EVQLVESGGGLVQPGGSLRLSCVASGSIVRINTMGWYRQTPGKQRELVADITSGGNINYIDAVKGRFTISRDNTKNTVYLQMNSLKPEDTAVYYCNAEIVVLVGVWTQRARTGNYWGQGTQVTVSSGGGGSGGGGSGGGGSGGGGSGGGGSGGGGSGGGGSEVQLVESGGELVQPGGSLRLSCAASGSILTINAMGWYRQAPGKQRELVVRRTRGGSTTYQDSVKGRFTISADIAKKTMYLQMNSLKPEDTAVYYCMLDDRGGVYWGQGTQVTVSS and print it.
A: 1.66
